Study target: human DGKζ (Homo sapiens)
Construct: TVMV protease cleavage site (C); Hexa-His (C); made in house; host or cells: Sf9 insect cells (baculovirus, Bac-to-Bac)
Sequence (Q13574 with tags, fused parts or gaps isoform Q13574-4): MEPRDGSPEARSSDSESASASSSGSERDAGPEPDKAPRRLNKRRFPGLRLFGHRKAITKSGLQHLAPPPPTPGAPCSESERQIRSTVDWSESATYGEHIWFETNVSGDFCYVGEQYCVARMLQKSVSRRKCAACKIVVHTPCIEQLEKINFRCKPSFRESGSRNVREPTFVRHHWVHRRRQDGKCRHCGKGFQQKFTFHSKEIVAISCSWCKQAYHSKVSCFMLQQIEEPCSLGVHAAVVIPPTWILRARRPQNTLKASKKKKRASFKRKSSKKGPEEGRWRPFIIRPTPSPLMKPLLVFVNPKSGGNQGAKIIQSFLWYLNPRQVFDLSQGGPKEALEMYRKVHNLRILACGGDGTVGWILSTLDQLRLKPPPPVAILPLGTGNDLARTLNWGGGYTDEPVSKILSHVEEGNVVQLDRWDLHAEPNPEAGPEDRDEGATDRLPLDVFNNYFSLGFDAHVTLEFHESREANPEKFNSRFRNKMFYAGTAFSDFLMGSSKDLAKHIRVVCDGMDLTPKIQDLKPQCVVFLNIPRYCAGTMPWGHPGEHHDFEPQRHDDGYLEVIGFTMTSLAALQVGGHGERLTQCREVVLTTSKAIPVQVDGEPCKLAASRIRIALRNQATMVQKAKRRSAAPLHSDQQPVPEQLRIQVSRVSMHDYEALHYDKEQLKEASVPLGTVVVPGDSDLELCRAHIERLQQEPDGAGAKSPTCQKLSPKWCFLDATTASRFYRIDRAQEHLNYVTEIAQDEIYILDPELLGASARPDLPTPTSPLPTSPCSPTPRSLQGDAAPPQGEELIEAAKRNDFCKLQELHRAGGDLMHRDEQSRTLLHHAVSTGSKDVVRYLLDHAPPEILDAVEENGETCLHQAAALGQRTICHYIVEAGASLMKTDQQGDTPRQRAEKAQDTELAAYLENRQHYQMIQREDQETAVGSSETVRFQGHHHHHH
Experiment: DGKζ LIPGLO assay (extruded liposome substrate), in vitro DGK inhibition
Assay type: biochemical
Study conditions: liposome (LIPGLO) assay; read-out: DGKz LIPGLO IC50
Measured property: IC50
State the value with its unit after it.

>>> measured("CC[C@@H]1CN(c2cc(=O)n(C)c3ccc(C#N)nc23)[C@@H](C)CN1C(CC1CCCCC1)c1ccc(OC(F)(F)F)cc1 (stereo partly drawn) [Example 1196]")
"270 nM"

## Task Find IC50 (human DGKζ (Homo sapiens)) for the entry CC[C@@H]1CN(c2cc(=O)n(C)c3ccc(C#N)nc23)[C@@H](C)CN1C(C)c1ccc(C2CC2)cc1F (single isomer, unassigned) [Example 1341]
## Result 1400 nM

## Task Find IC50 (human DGKζ (Homo sapiens)) for the entry C[C@@H]1CN(c2cc(=O)n(C)c3ccc(C#N)nc23)[C@@H](C)CN1C(c1ccc(OC(F)(F)F)cc1)c1ccc(F)cn1 (single isomer, unassigned) [Example 466]
## Result 1800 nM

## Task Find IC50 (human DGKζ (Homo sapiens)) for the entry CSCC(c1ccc(F)cc1)N1C[C@H](C)N(c2cc(=O)n(C)c3ccc(C#N)nc23)C[C@H]1C (single isomer, unassigned) [Example 1318]
## Result 34 nM
